Entries annotated with measured pest or weed control at 15.625 g/ha
- System: velvetleaf (Abutilon theophrasti)
- test.details: Test G Post-Emergence Protocol
- Assay type: in vivo
- settings: Abutilon theophrasti, post-emergence, 312 h, 15.625 g ai/ha, evaluated after 13 days (100=total damage to plant; 0=no damage to plant), read-out: Velvetleaf damage rating
The reply should be a number in %, with the unit left off.

                                   molecule  output_unit  data_value
0  CN1C[C@H](c2ccc(C(F)(F)F)cc2)[C@@H](C(=O)Nc2cccnc2F)C1=O            %          40

Task: Which pest or weed control at 15.625 g/ha value is on record for Cc1c(Cl)ccc([C@@H]2CN(C)C(=O)[C@H]2C(=O)Nc2cccc(F)c2F)c1F (racemic) ?
Output: 0

Task: Query (molecule): CN1C[C@@H](c2ccc(C(F)(F)F)cc2)[C@H](C(=O)Nc2cccc(C(F)(F)F)c2[N+](=O)[O-])C1=O (racemic) ; field requested: pest or weed control at 15.625 g/ha
Output: 0

Task: Which pest or weed control at 15.625 g/ha is reported for this molecule? Cc1n[nH]cc1NC(=O)[C@@H]1C(=O)N(C)C[C@H]1c1ccc(C(F)(F)F)cc1 (racemic)
Output: 0

Task: Query (molecule): CN1C[C@@H](c2cncc(Cl)c2)[C@H](C(=O)Nc2cccc(F)c2F)C1=O (racemic) ; field requested: pest or weed control at 15.625 g/ha
Output: 0

Task: # get_value(readout='pest or weed control at 15.625 g/ha', item= CN1C[C@H](c2cccc(C(F)(F)F)c2)[C@@H](C(=O)Nc2cnccc2F)C1=O (racemic) )
Output: 0

---

- System: wheat (Triticum aestivum)
- test.details: Test A postemergence
- Assay type: in vivo
- settings: Triticum aestivum, post-emergence, 240 h, 125 g ai/ha, postemergence; visual injury on 0 to 100 scale (0 no effect, 100 complete control), approx. 10 d; read-out: Wheat plant response rating
measurement.kind: plant injury at 125 g/ha (%)
Entry rule: numbers only, all in %.

>>> df
                                        mol  data_value
0  CN1CC[C@H](c2ccccc2)[C@@H](C(=O)Nc2ccccc2F)C1=O           0
1  CN1C[C@H](c2cc(F)cc(F)c2)[C@@H](C(=O)Nc2ccncc2F)C1=O           0
2  CN1C[C@H](c2cscn2)[C@@H](C(=O)Nc2ccccc2F)C1=O           0

Task: I'd like to know its plant injury at 125 g/ha. The compound in question is `CN1C[C@H](c2csc3c2CCOC3)[C@@H](C(=O)Nc2ccc(F)c(F)c2F)C1=O`
Output: 0

Task: Data request, read-out plant injury at 125 g/ha, for `CSc1ccccc1NC(=O)[C@H]1C(=O)N(C)C[C@@H]1c1ccc(C(F)(F)F)cn1`
Output: 0

Task: For the compound shown here, `O=C1NC[C@H](c2ccc3c(c2)CCC3)[C@H]1C(=O)Nc1ccccc1F` , give the reported plant injury at 125 g/ha.
Output: 20

Task: I'd like to know its plant injury at 125 g/ha. The compound in question is `O=C1NC[C@H](c2ccc(F)c(OC(F)(F)C(F)F)c2)[C@H]1C(=O)Nc1cccc(F)c1F`
Output: 50

Task: Quick check: plant injury at 125 g/ha of `CN1C[C@H](c2ccc(C(F)(F)F)nc2)[C@@](C)(C(=O)Nc2cccc(F)c2F)C1=O` ?
Output: 60

---

- Tested on: giant foxtail (Setaria faberi)
- test.details: Test G Pre-Emergence Protocol
- Type: in vivo
- settings: Setaria faberi, pre-emergence, 312 h, 62.5 g ai/ha, evaluated after 13 days, 100=total damage to plant, 0=no damage to plant, read-out: plant damage rating, Foxtail, Giant
Measured pest or weed control at 62.5 g/ha, listed per entry.
Write the answer as a number in %, unit excluded.

Task: Fill in the blank: the reported pest or weed control at 62.5 g/ha of CN1C[C@H](c2ccc(F)c(C#N)c2)[C@@H](C(=O)Nc2ccccc2F)C1=O (racemic) [Compound 1468] is ____.
Output: 80

---

- System: pigweed (Amaranthus retroflexus)
- test.details: Test A postemergence
- Type: in vivo
- settings: 125 g ai/ha, postemergence; visual injury rating on 0 to 100 scale (0 no effect, 100 complete control), approx. 10 d
measurement.kind: Pigweed plant response rating
Respond with the number and no other words.

Answered cases to consult:
>>> print(df.to_string())
                                   compound               measurement_kind  data_value
0  O=C1NCC(c2cccc(OCC(F)F)c2)C1C(=O)Nc1cccc(F)c1F (stereo not shown)  Pigweed plant response rating           0
1  CN1CC(c2ccc(Cl)cc2)C(C(=O)Nc2cccc(F)c2F)C1=O (stereo not shown)  Pigweed plant response rating          60
2  O=C1NCC(c2ccc(F)cc2F)C1C(=O)Nc1ccc(F)cc1F (racemic)  Pigweed plant response rating           0

Now turn to the next compound.
Task: Lookup: Pigweed plant response rating / pigweed (Amaranthus retroflexus) / CN1CC(c2cccc(OC(F)F)c2)C(C(=O)Nc2ccccc2S(C)(=O)=O)C1=O (stereo not shown)
Output: 30

---

- Test system: ivy-leaved morning glory (Ipomoea hederacea)
- test.details: Test G Post-Emergence Protocol
- Format: in vivo
- settings: Ipomoea, post-emergence, 312 h, 250 g ai/ha, evaluated after 13 days, 100=total damage to plant, 0=no damage to plant, read-out: Morningglory, Ivy-leaved damage rating
measurement.kind: pest or weed control at 250 g/ha (%)
# value in %; strip the unit string

>>> df
                                   compound  output_unit  data_value
0  CN1C[C@@H](c2ccc(CO)cc2)[C@H](C(=O)Nc2cccc(F)c2F)C1=O (racemic)            %           0

Task: Observed pest or weed control at 250 g/ha on ivy-leaved morning glory (Ipomoea hederacea) for COc1ccc([C@@H]2CN(C)C(=O)[C@H]2C(=O)Nc2cccc(F)c2C)cc1Cl (racemic) , please.
Output: 70

Task: Record lookup: for ivy-leaved morning glory (Ipomoea hederacea), what pest or weed control at 250 g/ha belongs to CN1C[C@H](c2cc(F)cc(F)c2)[C@@H](C(=O)Nc2cnccc2C(F)(F)F)C1=O (racemic) ?
Output: 10

---

Below: a set of entries, each annotated with reported pest or weed control at 125 g/ha.
- Tested on: pigweed (Amaranthus retroflexus)
- test.details: Test A preemergence
- Assay type: in vivo
- settings: Amaranthus retroflexus, pre-emergence, 240 h, 125 g ai/ha, preemergence; visual injury rating, 0 to 100 scale where 0 is no effect and 100 is complete control; approximately 10 d; read-out: Pigweed plant response rating
- Text: […]
Your answer is read as %, so omit the unit and give the number.

Task: Would you kindly share the measured pest or weed control at 125 g/ha for O=C(Nc1ccc(F)c(F)c1F)[C@H]1C(=O)N(CC(F)F)C[C@@H]1c1cccc(C(F)(F)F)c1 [Compound 1297] ?
Output: 0

Task: Fill in: pest or weed control at 125 g/ha of CN1C[C@H](c2ccc(C(F)(F)F)cc2)[C@@H](C(=O)Nc2ccccc2-n2cccn2)C1=O [Compound 1283] is ___
Output: 0

---

- System: giant foxtail (Setaria faberi)
- test.details: Test G Pre-Emergence Protocol
- Format: in vivo
- settings: Setaria faberi, pre-emergence, 312 h, 250 g ai/ha, evaluated after 13 days, read-out: Foxtail, Giant damage rating (100=total damage to plant; 0=no damage to plant)
- Description: Seeds of corn (Zea mays), giant foxtail (Setaria faberi), barnyardgrass (Echinochloa crus-galli), ivy-leaved morning glory (Ipomoea hederacea), redroot pigweed (Amaranthus retroflexus) and velvetleaf (Abutilon theophrasti) were sown in standard soil in pots. […]
measurement.kind: pest or weed control at 250 g/ha (%)
Return type: number; implicit unit %.

In [3]: df
Out[3]:
                                   molecule                target_or_system  data_value
0  CN1C[C@@H](c2ccc(C(F)(F)F)cc2)[C@H](C(=O)Nc2cc(O)nc(C(F)(F)F)n2)C1=O (racemic)  giant foxtail (Setaria faberi)           0
1  CN1C[C@@H](c2ccc(C(F)(F)F)cc2)[C@H](C(=O)Nc2cc(C(F)(F)F)no2)C1=O (racemic)  giant foxtail (Setaria faberi)           0
2  Cc1c(Cl)cccc1NC(=O)[C@@H]1C(=O)N(C)C[C@H]1c1ccc(C(F)(F)F)cc1 (racemic)  giant foxtail (Setaria faberi)          80
3  CN1C[C@@H](c2ccc(C(F)(F)F)cc2)[C@H](C(=O)Nc2ccsc2)C1=O (racemic)  giant foxtail (Setaria faberi)           0
4  CSc1nccc(NC(=O)[C@@H]2C(=O)N(C)C[C@H]2c2ccc(C(F)(F)F)cc2)n1 (racemic)  giant foxtail (Setaria faberi)           0

Task: Record Cc1c(Cl)ccc([C@@H]2CN(C)C(=O)[C@H]2C(=O)Nc2cccc(F)c2F)c1F (racemic) : what is its pest or weed control at 250 g/ha with giant foxtail (Setaria faberi)?
Output: 80

Task: Request body: readout pest or weed control at 250 g/ha, system giant foxtail (Setaria faberi), query `CN1C[C@@H](c2cccc(C(F)(F)F)c2)[C@H](C(=O)Nc2cccc(F)n2)C1=O` . Return the value.
Output: 10

Task: Entry CN1C[C@H](c2ccc(C(F)(F)F)cc2)[C@@H](C(=O)Nc2cccc3c2C(=O)OC3)C1=O (racemic) , system giant foxtail (Setaria faberi): what pest or weed control at 250 g/ha was measured?
Output: 60
